test system: HT-1080 (ATCC, CCL-121) cells; assay: HT-1080 cell viability assay with ferroptosis inducer RSL3 (Cell Titer-Glo); format: cell-based; settings: Homo sapiens; HT-1080 cells treated with RSL3; 3-fold, 10-point dilution, 1.1 μM highest concentration; Table 3; read-out: EC50 (nM), ferroptosis inhibitory activity
assay metric: EC50

Solved entries (count: 7):
| molecule | EC50 |
| --- | --- |
| COCCn1c(=O)n(C)c2ccc(Nc3ccc(N4CCC(C(F)(F)F)C4)cc3C)cc21 (centres unmarked) | 0.1 to 100 nM |
| Cc1cc(N2CC(OC(C)C)C2)ccc1Nc1ccc2c(c1)OCC(=O)N2 | 0.1 to 100 nM |
| Cc1cc(N2CCC(C(F)(F)F)CC2)ccc1Nc1ccc2c(c1)NC(=O)C2(C)C | 0.1 to 100 nM |
| COc1cc(Nc2ccc3c(c2)OCC(=O)N3)c(C)cc1N1CCC(C(F)(F)F)CC1 | 0.1 to 100 nM |
| Cc1cc(N2CCC(OC(F)(F)F)C2)ccc1Nc1ccc2c(c1)OCCC(=O)N2 (centres unmarked) | 0.1 to 100 nM |
| Cc1nc(N2C[C@@H](C)O[C@@H](C)C2)ccc1Nc1ccc2c(c1)ncn2C | 0.1 to 100 nM |
| Cc1cc(N2CC(C)OC(C)C2)ccc1Nc1cnc2c(c1)OCC(=O)N2 (centres unmarked) | 0.1 to 100 nM |

Now turn to the next molecule.
Per the record, Cc1cc(Nc2ccc(N3CC(C)OC(C)C3)cc2)cc2c1N(C)C(=O)CO2 (centres unmarked) has EC50 of 0.1 to 100 nM

###

system: HT-1080 (ATCC, CCL-121) cells; assay: HT-1080 cell viability assay with ferroptosis inducer RSL3 (Cell Titer-Glo); assay type: cell-based; settings: Homo sapiens; HT-1080 cells treated with RSL3; 3-fold, 10-point dilution, 1.1 μM highest concentration; Table 2; read-out: EC50 (nM), ferroptosis inhibitory activity
assay metric: EC50

| molecule | assay metric | result |
| --- | --- | --- |
| Cc1cc(Nc2ccc3c(c2)OCC(=O)N3C)cc(C)c1N1CCC(C(F)(F)F)CC1 [Compound 155] | EC50 | 0.1 to 100 nM |

So the reported EC50 for Cc1cc(N2CC(C)OC(C)C2)ccc1Nc1ccc2c(c1)CN(C)C2 (stereo not drawn) [Compound 439] , on HT-1080 (ATCC, CCL-121) cells, turned out to be 0.1 to 100 nM

Field EC50 (system: HT-1080 (ATCC, CCL-121) cells) for entry COCCN1C(=O)COc2cc(Nc3ccc(N4CC(C)OC(C)C4)cc3)ccc21 (stereo not drawn) [Compound 95] = 0.1 to 100 nM

Record for CNCCCN1C(=O)COc2cc(Nc3ccc(N4CC(C)OC(C)C4)cc3)ccc21 (stereo not drawn) [Compound 45] under target or system HT-1080 (ATCC, CCL-121) cells: EC50 reported as 0.1 to 100 nM

###

Examples of compounds with documented EC50 follow.
test system: HT-1080 (ATCC, CCL-121) cells; test: HT-1080 cell viability assay with ferroptosis inducer RSL3 (Cell Titer-Glo); type: cell-based; details: Homo sapiens; HT-1080 cells treated with RSL3; 3-fold, 10-point dilution, 1.1 μM highest concentration; Table 2; read-out: EC50 (nM), ferroptosis inhibitory activity

Some compounds with known EC50 results, for comparison:
| structure | EC50 |
| --- | --- |
| Cn1c(NCC2CC2)cc2ccc(Nc3ccc(N4CCC(C(F)(F)F)CC4)cc3)cc21 | 0.1 to 100 nM |
| CC1CCN(c2ccc(Nc3ccc4c(c3)ncc(=O)n4C)cc2)CC1 | 0.1 to 100 nM |
| CC(C)(C)c1ccc(Nc2ccc3cc(CCN)c(=O)oc3c2)cc1 | 0.1 to 100 nM |
| CN1C(=O)COc2cc(Nc3ccc(N4CCC(C(F)(F)F)CC4)cc3)cnc21 | 0.1 to 100 nM |

EC50 measured on NC(=O)CCn1ncc2cc(Nc3ccc(N4CCC(C(F)(F)F)CC4)cc3)ccc21 = 0.1 to 100 nM

For record CN1C(=O)COc2cc(Nc3ccc(OCCCF)cc3)ccc21 the listed EC50 is 0.1 to 100 nM

Reported EC50 for Cn1c(=O)oc2cc(Nc3ccc(N4CC(C)(C)C4)cc3)ccc21 was 0.1 to 100 nM

Form field EC50, entry CN1Cc2cc(Nc3ccc(-c4ccccc4)cc3)ccc2C1=O : 0.1 to 100 nM

Consider CC1CCN(c2ccc(Nc3ccc4nnn(C)c4c3)cc2)CC1 . Its measured EC50 is 0.1 to 100 nM

The compound listed as CN1CCN(CC(=O)N2CCc3cc(Nc4ccc(N5CCCCC5)cc4)ccc3C2)CC1 has a reported EC50 of 100 to 1000 nM

Value of EC50 reported for the compound COc1ccc(C)cc1Nc1ccc2c(c1)CN(C)C2=O is 0.1 to 100 nM
